- Tested on: Clostridium difficile (Isolate ID ATCC 9689)
- test-name: Bacterial Assay: Determination of Antibacterial Activity (MIC, broth microdilution or agar dilution)
- Type: cell-based
- condition-parameters: Clostridioides difficile, ATCC9689, 48 h, read-out: C. difficile MIC Activity Range
experimental-readout: MIC

NC(=O)c1c(F)ccc(OCCCCOc2ccc(F)cc2)c1F : 1 to 4 µg/mL
NC(=O)c1c(F)ccc(OCCCc2nc3cc(Cl)ccc3s2)c1F : 1 to 4 µg/mL
NC(=O)c1c(F)ccc(OCc2nc(-c3ccc(Cl)cc3)c(Br)s2)c1F : < 1.01 µg/mL
NC(=O)c1c(F)ccc(OCc2cccc(-c3ccc(Cl)cc3)n2)c1F : < 1.01 µg/mL
NC(=O)c1c(F)ccc(OCCCCOc2ccc(OC(F)(F)F)cc2)c1F : < 1.01 µg/mL

In: Given the compound CC(Oc1ccc(F)c(C(N)=O)c1F)c1nc(-c2ccc(Cl)cc2)ns1 (centres unmarked) , what is its reported MIC?
Out: < 1.01 µg/mL

In: Also COc1ccc(-c2nc(C(C)Oc3ccc(F)c(C(N)=O)c3F)oc2Br)cc1 (centres unmarked) , if possible.
Out: < 1.01 µg/mL

In: Here is the next compound: NC(=O)c1c(F)ccc(O[C@H](COC(=O)CCC(=O)O)c2nc(-c3ccc(C(F)(F)F)cc3)c(Br)o2)c1F
Out: < 1.01 µg/mL

* * *

- Test system: Clostridium difficile (Isolate ID ATCC 9689)
- test-name: Bacterial Assay: Determination of Antibacterial Activity (MIC, broth microdilution or agar dilution)
- Assay type: cell-based
- condition-parameters: Clostridioides difficile, ATCC9689, 48 h, read-out: C. difficile MIC Activity Range
Below is a list of entries, each paired with its recorded MIC value.

Reference set, count: 4
CCCCCCCCCOc1cccc(C(N)=O)c1F [Compound 8, 2-fluoro-3-(nonyloxy)benzamide] : < 1.01 µg/mL
NC(=O)c1c(F)ccc(OCCCCOc2ccc(C(F)(F)F)nc2)c1F : 1 to 4 µg/mL
NC(=O)c1c(F)ccc(OCCCCOc2ccc(Cl)cn2)c1F : < 1.01 µg/mL
CC(Oc1ccc(F)c(C(N)=O)c1F)c1nc(-c2ccc(C(F)(F)F)cc2)c(Br)o1 (centres unmarked) : < 1.01 µg/mL

In: Dear colleague, I am looking for the recorded MIC of the following compound: NC(=O)c1c(F)ccc(OC(CO)c2nc(-c3ccc(Br)s3)c(Br)o2)c1F (centres unmarked)
Out: 1 to 4 µg/mL

In: Likewise for CC/C=C\CCCCCOc1ccc(F)c(C(N)=O)c1F ?
Out: < 1.01 µg/mL

In: Request: COC(=O)NCC(Oc1ccc(F)c(C(N)=O)c1F)c1nc(-c2ccc(C(F)(F)F)cc2)c(Br)o1 (racemic)
Out: 1 to 4 µg/mL

In: What do you get for NC(=O)c1c(F)ccc(OCCCCOc2cccc(F)c2)c1F ?
Out: 1 to 4 µg/mL

* * *

Some compounds, each annotated with its measured MIC.
- Test system: Clostridium difficile (Isolate ID ATCC 9689)
- test-name: Bacterial Assay: Determination of Antibacterial Activity (MIC, broth microdilution or agar dilution)
- Type: cell-based
- condition-parameters: Clostridioides difficile, ATCC9689, 48 h, read-out: C. difficile MIC Activity Range

As a guide, the following entries are already answered.
NC(=O)c1c(F)ccc(OCCCc2nc(-c3ccc(S(F)(F)(F)(F)F)cc3)cs2)c1F [Compound 116] : 1 to 4 µg/mL
CCCCCC/C=C/COc1ccc(F)c(C(N)=O)c1F [Compound 3] : < 1.01 µg/mL

In: May I ask what MIC has been recorded for N#Cc1cccc(OCCCCOc2ccc(F)c(C(N)=O)c2F)c1 [Compound 173] ?
Out: 4 to 16 µg/mL

In: What do you have for NC(=O)c1c(F)ccc(OCc2nc(-c3ccc(S(F)(F)(F)(F)F)cc3)no2)c1F [Compound 120] ?
Out: 4 to 16 µg/mL

In: # repeat for NC(=O)c1c(F)ccc(OCCCc2nc(-c3ccc(C(F)(F)F)cc3)cs2)c1F [Compound 113]
Out: 1 to 4 µg/mL

In: Quick one: NC(=O)c1c(F)ccc(OCCCCCOc2ccc(OC(F)(F)F)cc2)c1F [Compound 131]
Out: < 1.01 µg/mL

In: Then what about the compound CNCC(=O)OCC(Oc1ccc(F)c(C(N)=O)c1F)c1nc(-c2ccc(Cl)cc2)c(Cl)o1 (centres unmarked) [Compound 37] ?
Out: 4 to 16 µg/mL

In: Please answer likewise for CN(CCCCOc1ccc(C(F)(F)F)cn1)c1ccc(F)c(C(N)=O)c1F [Compound 180]
Out: 1 to 4 µg/mL

* * *

- Test system: Clostridium difficile (Isolate ID ATCC 9689)
- test-name: Bacterial Assay: Determination of Antibacterial Activity (MIC, broth microdilution or agar dilution)
- Format: cell-based
- condition-parameters: Clostridioides difficile, ATCC9689, 48 h, read-out: C. difficile MIC Activity Range
Measured MIC, listed per entry.

The following molecules have reported results that may help.
CC(C)(C)c1ccc(OCCCCOc2ccc(F)c(C(N)=O)c2F)cc1 : < 1.01 µg/mL
NC(=O)c1c(F)ccc(OCCCCOc2ccc(F)c(F)c2)c1F : 1 to 4 µg/mL
NC(=O)c1c(F)ccc(OCc2nc(-c3ccc(Cl)cc3)no2)c1F : 1 to 4 µg/mL
NC(=O)c1c(F)ccc(OCCCOc2ccc(Cl)cc2)c1F : 1 to 4 µg/mL
Cc1c(CNC(=O)OCC(Oc2ccc(F)c(C(N)=O)c2F)c2nc(-c3ccc(C(F)(F)F)cc3)c(Br)o2)cnn1C (stereo not drawn) : < 1.01 µg/mL
CCCCCCCCCOc1ccc(Cl)c(C(N)=O)c1F [Compound 2, 6-chloro-2-fluoro-3-(nonyloxy)benzamide] : < 1.01 µg/mL
Cn1cc(CNC(=O)OCC(Oc2ccc(F)c(C(N)=O)c2F)c2nc(-c3ccc(C(F)(F)F)cc3)c(Br)o2)cn1 (stereo not drawn) : < 1.01 µg/mL
NC(=O)c1c(F)ccc(OCCCCCCOc2ccc(OC(F)(F)F)cc2)c1F : < 1.01 µg/mL
C#CCCCCCCCCCOc1cccc(C(N)=O)c1F : < 1.01 µg/mL
NC(=O)c1c(F)ccc(OCc2ccnc(-c3ccc(Cl)cc3)n2)c1F : < 1.01 µg/mL

In: I would be grateful if you could share the reported MIC for CC(C)(C)OC(=O)NCCNC(=O)OCC(Oc1ccc(F)c(C(N)=O)c1F)c1nc(-c2ccc(C(F)(F)F)cc2)c(Br)o1 (stereo not drawn) .
Out: 1 to 4 µg/mL

* * *

# MIC values compiled below
- System: Clostridium difficile (Isolate ID ATCC 9689)
- test-name: Bacterial Assay: Determination of Antibacterial Activity (MIC, broth microdilution or agar dilution)
- Type: cell-based
- condition-parameters: Clostridioides difficile, ATCC9689, 48 h, read-out: C. difficile MIC Activity Range

NC(=O)c1c(F)ccc(OCCCCOc2ccc(F)cc2F)c1F [Compound 162] : 1 to 4 µg/mL
NC(=O)c1c(F)ccc(OCc2ccn(-c3ccc(OC(F)(F)F)cc3)n2)c1F [Compound 108] : < 1.01 µg/mL
NC(=O)c1c(F)ccc(OCc2nc(-c3ccc(S(F)(F)(F)(F)F)cc3)cs2)c1F [Compound 112] : < 1.01 µg/mL
NC(=O)c1c(F)ccc(OCCCCOc2cccc(S(F)(F)(F)(F)F)c2)c1F [Compound 174] : < 1.01 µg/mL
C=CCc1oc(C(C)Oc2ccc(F)c(C(N)=O)c2F)nc1-c1ccc(OC(F)(F)F)cc1 (centres unmarked) [Compound 26] : 4 to 16 µg/mL

In: Can you look up the measured MIC of Cn1cccc1CNC(=O)OCC(Oc1ccc(F)c(C(N)=O)c1F)c1nc(-c2ccc(C(F)(F)F)cc2)c(Br)o1 (centres unmarked) [Compound 80] for me?
Out: < 1.01 µg/mL

In: What do you have for NC(=O)c1c(F)ccc(OCCCCSc2ccc(Cl)cc2)c1F [Compound 153] ?
Out: < 1.01 µg/mL

In: For Cc1cc(CNC(=O)OCC(Oc2ccc(F)c(C(N)=O)c2F)c2nc(-c3ccc(C(F)(F)F)cc3)c(Br)o2)ccn1 (centres unmarked) [Compound 78] then?
Out: < 1.01 µg/mL

* * *

- Tested on: Clostridium difficile (Isolate ID ATCC 9689)
- test-name: Bacterial Assay: Determination of Antibacterial Activity (MIC, broth microdilution or agar dilution)
- Format: cell-based
- condition-parameters: Clostridioides difficile, ATCC9689, 48 h, read-out: C. difficile MIC Activity Range
experimental-readout: MIC

Please review the entries below; each comes with its answer.
NC(=O)c1c(F)ccc(OCCc2nc(-c3ccc(S(F)(F)(F)(F)F)cc3)no2)c1F [Compound 118] : < 1.01 µg/mL
CCOC(=O)c1ccc(OCCCCOc2ccc(F)c(C(N)=O)c2F)cc1 [Compound 138] : < 1.01 µg/mL
N#CCCCN(CCCCOc1ccc(OC(F)(F)F)cc1)c1ccc(F)c(C(N)=O)c1F [Compound 182] : 4 to 16 µg/mL
CCCCCCCCCOc1ccc(F)c(/C(N)=N/O)c1F [Compound 106] : < 1.01 µg/mL

In: I am curious: what MIC value has been reported for Cn1ccnc1CNC(=O)OCC(Oc1ccc(F)c(C(N)=O)c1F)c1nc(-c2ccc(C(F)(F)F)cc2)c(Br)o1 (centres unmarked) [Compound 79] ?
Out: 4 to 16 µg/mL

In: And the next one, CCNC(=O)NCC(Oc1ccc(F)c(C(N)=O)c1F)c1nc(-c2ccc(C(F)(F)F)cc2)c(Br)o1 (racemic) [Compound 95] ?
Out: < 1.01 µg/mL

In: Also CC(=O)OCC(Oc1cccc(C(N)=O)c1F)c1nc(-c2ccc(C(F)(F)F)cc2)c(Br)o1 (centres unmarked) [Compound 57] , if possible.
Out: < 1.01 µg/mL

In: Input NC(=O)c1c(F)ccc(OCCCCNc2ccc(Cl)cc2)c1F [Compound 142]
Out: 1 to 4 µg/mL

In: NC(=O)c1c(F)ccc(OCCCCCOc2ccc(Cl)cc2)c1F [Compound 130] ?
Out: < 1.01 µg/mL
